The origin of these recorded values is patent US10752612B2.

target: FLT4/VEGFR3 (Homo sapiens, UniProt P35916); assay: Radiometric kinase assay, off-target FLT4/VEGFR3; settings: off-target from DiscoveRx kinome profiling
Sequence (P35916 25-1363): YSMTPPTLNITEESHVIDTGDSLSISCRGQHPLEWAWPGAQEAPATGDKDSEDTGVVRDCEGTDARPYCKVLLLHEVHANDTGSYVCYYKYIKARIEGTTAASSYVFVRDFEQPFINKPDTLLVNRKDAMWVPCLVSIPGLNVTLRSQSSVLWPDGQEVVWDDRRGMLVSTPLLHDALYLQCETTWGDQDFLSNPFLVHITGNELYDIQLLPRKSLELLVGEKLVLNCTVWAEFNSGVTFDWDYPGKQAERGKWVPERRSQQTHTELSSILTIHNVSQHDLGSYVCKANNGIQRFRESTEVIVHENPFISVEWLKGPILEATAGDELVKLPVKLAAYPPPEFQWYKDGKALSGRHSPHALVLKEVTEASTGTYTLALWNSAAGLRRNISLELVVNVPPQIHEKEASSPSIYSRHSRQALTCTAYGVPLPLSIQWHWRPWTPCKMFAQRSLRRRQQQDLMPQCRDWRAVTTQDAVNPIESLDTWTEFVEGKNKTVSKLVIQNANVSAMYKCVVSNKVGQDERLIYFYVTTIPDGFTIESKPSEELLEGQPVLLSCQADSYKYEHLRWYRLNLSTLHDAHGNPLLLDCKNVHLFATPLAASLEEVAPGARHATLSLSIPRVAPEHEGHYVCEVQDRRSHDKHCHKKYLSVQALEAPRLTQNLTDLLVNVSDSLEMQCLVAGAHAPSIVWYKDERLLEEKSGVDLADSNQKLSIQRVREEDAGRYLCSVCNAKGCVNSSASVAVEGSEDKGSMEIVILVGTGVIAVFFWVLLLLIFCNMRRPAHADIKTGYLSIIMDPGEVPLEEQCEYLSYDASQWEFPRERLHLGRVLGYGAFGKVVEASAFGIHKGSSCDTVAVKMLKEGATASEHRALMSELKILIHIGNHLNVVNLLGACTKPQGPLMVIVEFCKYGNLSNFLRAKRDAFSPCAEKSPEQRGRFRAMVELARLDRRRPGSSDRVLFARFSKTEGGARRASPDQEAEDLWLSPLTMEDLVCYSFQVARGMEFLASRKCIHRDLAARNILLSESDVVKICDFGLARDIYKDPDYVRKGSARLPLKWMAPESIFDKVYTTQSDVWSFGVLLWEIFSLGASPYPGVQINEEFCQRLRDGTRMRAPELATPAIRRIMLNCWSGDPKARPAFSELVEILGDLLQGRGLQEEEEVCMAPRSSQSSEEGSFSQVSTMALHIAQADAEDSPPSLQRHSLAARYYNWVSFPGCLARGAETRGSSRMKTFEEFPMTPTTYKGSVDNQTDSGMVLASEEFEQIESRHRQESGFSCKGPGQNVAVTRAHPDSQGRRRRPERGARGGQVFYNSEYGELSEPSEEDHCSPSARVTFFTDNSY
pKi: −log10 of the molar value.

{"columns": ["compound", "pKi"],
 "data": [
  ["COc1c(Nc2cc(C)[nH]n2)nc(Sc2ccc(S(=O)(=O)Cc3cccc([N+](=O)[O-])c3F)cc2F)nc1N1CCOCC1", 8.20],
  ["COc1c(Nc2cc(C)[nH]n2)nc(Sc2ccc(S(=O)(=O)Cc3cccc([N+](=O)[O-])c3F)cc2F)nc1N1CCCCC1", 7.24]
]}

----------
biological target: ROS/ROS1 (Homo sapiens, UniProt P08922); experiment: Radiometric kinase assay, off-target ROS/ROS1; conditions: off-target from DiscoveRx kinome profiling
Sequence (P08922 28-2347): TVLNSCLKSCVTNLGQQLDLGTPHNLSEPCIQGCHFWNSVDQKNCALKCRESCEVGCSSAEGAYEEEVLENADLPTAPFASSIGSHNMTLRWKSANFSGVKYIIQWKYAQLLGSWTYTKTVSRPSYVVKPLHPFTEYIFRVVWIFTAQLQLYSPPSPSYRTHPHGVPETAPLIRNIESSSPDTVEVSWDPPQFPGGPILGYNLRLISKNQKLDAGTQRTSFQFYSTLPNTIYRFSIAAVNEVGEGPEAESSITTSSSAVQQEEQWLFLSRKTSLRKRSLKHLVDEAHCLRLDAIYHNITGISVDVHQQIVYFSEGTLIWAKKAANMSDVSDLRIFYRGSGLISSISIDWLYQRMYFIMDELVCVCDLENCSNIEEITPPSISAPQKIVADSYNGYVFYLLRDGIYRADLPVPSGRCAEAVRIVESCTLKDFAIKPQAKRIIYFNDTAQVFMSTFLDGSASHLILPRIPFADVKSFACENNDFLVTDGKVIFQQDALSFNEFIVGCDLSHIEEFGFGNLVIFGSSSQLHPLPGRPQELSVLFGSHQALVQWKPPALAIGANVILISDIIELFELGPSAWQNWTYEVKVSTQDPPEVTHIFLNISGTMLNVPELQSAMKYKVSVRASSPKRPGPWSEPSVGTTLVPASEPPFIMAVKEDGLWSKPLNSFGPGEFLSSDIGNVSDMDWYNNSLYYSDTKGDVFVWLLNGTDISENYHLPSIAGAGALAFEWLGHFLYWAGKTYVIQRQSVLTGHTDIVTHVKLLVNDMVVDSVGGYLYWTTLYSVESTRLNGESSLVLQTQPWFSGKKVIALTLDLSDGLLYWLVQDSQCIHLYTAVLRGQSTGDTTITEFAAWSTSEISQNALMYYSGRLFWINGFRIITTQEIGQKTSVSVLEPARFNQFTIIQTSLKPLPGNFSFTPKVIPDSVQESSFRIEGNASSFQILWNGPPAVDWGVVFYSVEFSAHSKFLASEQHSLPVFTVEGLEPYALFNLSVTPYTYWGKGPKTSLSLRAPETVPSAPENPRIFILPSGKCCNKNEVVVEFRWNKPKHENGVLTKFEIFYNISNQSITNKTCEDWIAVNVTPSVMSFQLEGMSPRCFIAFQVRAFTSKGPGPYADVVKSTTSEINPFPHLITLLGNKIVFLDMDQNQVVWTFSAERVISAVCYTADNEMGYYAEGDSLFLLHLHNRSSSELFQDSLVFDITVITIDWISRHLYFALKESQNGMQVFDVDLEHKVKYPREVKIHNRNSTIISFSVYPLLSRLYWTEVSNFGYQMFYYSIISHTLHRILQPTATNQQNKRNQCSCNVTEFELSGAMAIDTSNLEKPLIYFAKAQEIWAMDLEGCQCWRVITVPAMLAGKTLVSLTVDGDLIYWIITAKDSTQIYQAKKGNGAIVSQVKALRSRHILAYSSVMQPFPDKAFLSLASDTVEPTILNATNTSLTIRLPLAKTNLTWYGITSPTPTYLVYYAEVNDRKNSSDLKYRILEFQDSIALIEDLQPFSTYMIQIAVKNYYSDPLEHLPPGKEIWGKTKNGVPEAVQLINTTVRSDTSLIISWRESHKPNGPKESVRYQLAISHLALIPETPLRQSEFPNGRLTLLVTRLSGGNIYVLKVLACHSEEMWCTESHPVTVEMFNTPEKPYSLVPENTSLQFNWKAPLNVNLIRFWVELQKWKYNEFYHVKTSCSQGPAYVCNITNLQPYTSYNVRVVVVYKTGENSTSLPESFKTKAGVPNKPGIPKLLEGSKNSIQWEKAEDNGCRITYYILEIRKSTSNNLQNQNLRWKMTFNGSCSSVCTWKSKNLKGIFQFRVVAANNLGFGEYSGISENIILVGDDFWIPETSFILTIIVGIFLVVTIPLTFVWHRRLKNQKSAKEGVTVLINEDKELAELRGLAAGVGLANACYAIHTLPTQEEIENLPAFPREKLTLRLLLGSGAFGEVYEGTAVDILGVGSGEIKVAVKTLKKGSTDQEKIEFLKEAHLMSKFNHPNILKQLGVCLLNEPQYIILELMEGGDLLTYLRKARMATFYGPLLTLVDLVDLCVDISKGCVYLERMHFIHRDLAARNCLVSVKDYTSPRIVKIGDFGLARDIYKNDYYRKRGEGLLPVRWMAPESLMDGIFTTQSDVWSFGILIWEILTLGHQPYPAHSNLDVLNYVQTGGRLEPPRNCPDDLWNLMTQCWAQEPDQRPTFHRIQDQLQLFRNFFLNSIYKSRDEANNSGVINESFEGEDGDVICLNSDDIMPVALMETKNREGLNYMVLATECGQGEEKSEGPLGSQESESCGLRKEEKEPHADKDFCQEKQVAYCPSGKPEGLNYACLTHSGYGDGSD
property_label: Ki (nM)

{"columns": ["compound", "property_label", "readout_units", "quantitative_readout"],
 "data": [
  ["COc1c(Nc2cc(C)[nH]n2)nc(Sc2ccc(S(=O)(=O)Cc3cccc([N+](=O)[O-])c3F)cc2F)nc1N1CCOCC1", "Ki", "nM", 2.77],
  ["COc1c(Nc2cc(C)[nH]n2)nc(Sc2ccc(S(=O)(=O)Cc3cccc([N+](=O)[O-])c3F)cc2F)nc1N1CCCCC1", "Ki", "nM", 90.1]
]}

----------
Some molecules, each annotated with its measured IC50.
target: human Plk4 kinase domain (aa 2-275) (Homo sapiens); construct: purified 6×His-tagged human Plk4 kinase domain (aa 2-275); 6xHis; made in house; host or cells: E. coli; test: Plk4 kinase assay (ADP-Glo); assay type: biochemical; conditions: Table 1

{"columns": ["molecule", "IC50"],
 "data": [
  ["COc1c(Nc2cc(C)[nH]n2)nc(Sc2ccc(S(=O)(=O)Cc3cccc(C#N)c3F)cc2F)nc1N1CCN(CCN(C)C)CC1", "< 1000 nM"],
  ["CCOc1c(Nc2cc(C)[nH]n2)nc(Sc2ccc(NC(=O)C3CCCC3)cc2)nc1N(C)CC", "100 to 1000 nM"],
  ["COCCN(C)c1nc(Sc2ccc(NC(C)=O)cc2)nc(Nc2cc(C)[nH]n2)c1C", "< 1000 nM"],
  ["COc1c(Nc2cc(C)[nH]n2)nc(Sc2ccc(S(=O)(=O)Cc3ccccc3C)cc2)nc1N1CCN(CCN(C)C)CC1", "< 1000 nM"],
  ["COc1c(Nc2cc(C)[nH]n2)nc(Sc2ccc(S(=O)(=O)Cc3c(F)c(F)cc(Cl)c3F)cc2F)nc1N1CCC(CCN(C)C)CC1", "< 1000 nM"],
  ["CCOc1c(Nc2cc(C)[nH]n2)nc(Sc2ccc(NC(=O)C3CC3)cc2)nc1N(C)CCOC", "100 to 1000 nM"],
  ["COc1c(Nc2cc[nH]n2)nc(Sc2ccc(S(=O)(=O)Cc3ccccc3)cc2)nc1N1CCN(CCN(C)C)CC1", "< 1000 nM"],
  ["COc1c(Nc2cc(C)[nH]n2)nc(Sc2ccc(S(=O)(=O)Cc3cccc([N+](=O)[O-])c3F)cc2F)nc1N1CCOC[C@@H]1C", "< 1000 nM"],
  ["COc1c(Nc2cc(C)[nH]n2)nc(Sc2ccc(S(=O)(=O)Cc3cccc([N+](=O)[O-])c3F)cc2)nc1N1CCCCC1", "< 1000 nM"],
  ["CCOc1c(Nc2cc(C)[nH]n2)nc(Sc2ccc(NC(=O)C3CC3)cc2)nc1N1CCN(CCOC)CC1", "100 to 1000 nM"],
  ["COc1c(Nc2cc(C)[nH]n2)nc(Sc2ccc(NC(=O)C3CC3)cc2)nc1N1CCN(C(=O)CN(C)C)CC1", "< 1000 nM"],
  ["CNC(=O)Nc1ccc(Sc2nc(Nc3cc(C)[nH]n3)c(C)c(N3CCN(C(=O)COC)CC3)n2)cc1", "< 1000 nM"],
  ["CC(=O)Nc1ccc(Sc2nc(Nc3cc(C)[nH]n3)c(C)c(NC3CCNCC3)n2)cc1", "< 1000 nM"],
  ["COc1c(Nc2cc(C)[nH]n2)nc(Sc2ccc(N)cc2)nc1N1CCN(CCN(C)C)CC1", "100 to 1000 nM"],
  ["COc1c(Nc2cc(C)[nH]n2)nc(Sc2ccc(S(=O)(=O)C3(c4cccc([N+](=O)[O-])c4F)CC3)cc2F)nc1N1CCC(CN)CC1", "< 1000 nM"],
  ["CCN(CC)c1nc(Sc2ccc(S(=O)(=O)Cc3ccccc3)cc2)nc(Nc2cc(C)[nH]n2)c1OC", "< 1000 nM"],
  ["CSc1nc(Nc2cc(C)[nH]n2)c(C)c(N(C)C(C)C)n1", "< 1000 nM"],
  ["CCOc1c(Nc2cc(C)[nH]n2)nc(Sc2ccc(NC(=O)C3CC3)cc2)nc1N1CCOCC1", "< 1000 nM"],
  ["COc1c(Nc2cc(C)[nH]n2)nc(Sc2ccc(S(=O)(=O)Cc3cccc([N+](=O)[O-])c3)cc2)nc1N1CCOC[C@H]1C", "< 1000 nM"],
  ["Cc1ccc(Sc2nc(Nc3cc(C)[nH]n3)c(C)c(N(C)C(C)C)n2)cc1", "< 1000 nM"],
  ["COc1c(Nc2cc(C)[nH]n2)nc(SC)nc1N1CCN(CCN(C)C)CC1", "100 to 1000 nM"],
  ["COc1c(Nc2cc(C)[nH]n2)nc(Sc2ccc(NC(=O)C3CC3)cc2)nc1N1CCN(CCN(C)C)CC1", "< 1000 nM"],
  ["CC(=O)Nc1ccc(Sc2nc(Nc3cc(C)[nH]n3)c(C)c(N3CC=C(F)CC3)n2)cc1", "< 1000 nM"],
  ["COc1c(Nc2cc(C)[nH]n2)nc(Sc2ccc(S(=O)(=O)Cc3cccc(C(=O)N(C)C)c3F)cc2F)nc1N1CCOCC1", "< 1000 nM"],
  ["CCOc1c(Nc2cc(C)[nH]n2)nc(Sc2ccc(S(=O)(=O)Cc3ccccc3)cc2)nc1N1CCN(CCN(C)C)CC1", "< 1000 nM"],
  ["COc1c(Nc2cc(C)[nH]n2)nc(Sc2ccc(S(C)(=O)=O)cc2F)nc1N1CCC(CCN(C)C)CC1", "< 1000 nM"],
  ["CNC1CCN(c2nc(Sc3ccc(NC(C)=O)cc3)nc(Nc3cc(C)[nH]n3)c2C)CC1", "< 1000 nM"],
  ["COc1c(Nc2cc(C)[nH]n2)nc(Sc2ccc(S(=O)(=O)C(C)(C)c3cccc([N+](=O)[O-])c3F)cc2F)nc1N1CCN(C(=O)CN(C)C)CC1", "< 1000 nM"],
  ["COc1c(Nc2cc(C)[nH]n2)nc(Sc2ccc(S(=O)(=O)C(F)c3cccc([N+](=O)[O-])c3F)cc2F)nc1N1CCN(CCN(C)C)CC1 (centres unmarked)", "< 1000 nM"],
  ["COc1c(Nc2cc(C)[nH]n2)nc(Sc2ccc(NC(C)=O)cc2)nc1N1CCN(CCN2CCC(O)CC2)CC1", "100 to 1000 nM"],
  ["COc1c(Nc2cc(C)[nH]n2)nc(Nc2ccc(S(=O)(=O)Cc3ccccc3)cc2)nc1N1CCN(CCN(C)C)CC1", "< 1000 nM"],
  ["CCOc1c(Nc2cc(C)[nH]n2)nc(Sc2ccc(NC(C)=O)cc2)nc1N1CCN(C2CCN(C)CC2)CC1", "100 to 1000 nM"]
]}

----------
The reader will find Ki measurements below, all made with human Aurora A (Homo sapiens).
Sequence (O14965 whole entry): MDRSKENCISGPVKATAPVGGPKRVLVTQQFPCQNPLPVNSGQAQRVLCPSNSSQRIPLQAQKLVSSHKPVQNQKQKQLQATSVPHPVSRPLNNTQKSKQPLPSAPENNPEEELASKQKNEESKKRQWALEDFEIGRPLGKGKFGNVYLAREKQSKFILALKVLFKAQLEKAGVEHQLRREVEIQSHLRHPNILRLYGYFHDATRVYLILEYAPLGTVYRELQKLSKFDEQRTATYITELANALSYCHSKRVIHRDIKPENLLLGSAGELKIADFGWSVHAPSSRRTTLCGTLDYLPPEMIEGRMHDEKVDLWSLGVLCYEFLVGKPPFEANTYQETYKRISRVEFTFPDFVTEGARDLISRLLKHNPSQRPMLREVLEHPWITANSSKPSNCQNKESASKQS
property_label: Ki

{"columns": ["compound", "property_label", "result"],
 "data": [
  ["COc1c(Nc2cc(C)[nH]n2)nc(Sc2ccc(S(=O)(=O)Cc3cccc([N+](=O)[O-])c3F)cc2F)nc1N1CCCCC1", "Ki", "1.24 µM"],
  ["COc1c(Nc2cc(C)[nH]n2)nc(Sc2ccc(S(=O)(=O)Cc3cccc([N+](=O)[O-])c3F)cc2F)nc1N1CCOCC1", "Ki", "0.171 µM"]
]}

----------
molecular target: RET (Homo sapiens, UniProt P07949)

{"columns": ["compound", "Ki [nM]"],
 "data": [
  ["COc1c(Nc2cc(C)[nH]n2)nc(Sc2ccc(S(=O)(=O)Cc3cccc([N+](=O)[O-])c3F)cc2F)nc1N1CCOCC1", 13.9],
  ["COc1c(Nc2cc(C)[nH]n2)nc(Sc2ccc(S(=O)(=O)Cc3cccc([N+](=O)[O-])c3F)cc2F)nc1N1CCCCC1", 195]
]}

----------
biological target: human Plk4 kinase domain (aa 2-275) (Homo sapiens, UniProt O00444); construct: purified 6×His-tagged human Plk4 kinase domain (aa 2-275); 6xHis; made in house; host or cells: E. coli; assay: Plk4 kinase assay (ADP-Glo); assay type: biochemical; settings: Table 1
Sequence (O00444 2-275): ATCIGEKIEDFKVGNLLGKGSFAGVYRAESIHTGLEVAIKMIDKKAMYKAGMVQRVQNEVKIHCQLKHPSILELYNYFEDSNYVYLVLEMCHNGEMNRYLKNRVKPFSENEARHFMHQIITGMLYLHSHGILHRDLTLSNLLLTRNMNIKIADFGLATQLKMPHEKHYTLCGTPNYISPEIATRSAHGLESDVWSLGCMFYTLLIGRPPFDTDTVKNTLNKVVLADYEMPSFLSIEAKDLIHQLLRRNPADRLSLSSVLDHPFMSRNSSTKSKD
pIC50: −log10 of the molar value.
Below: a set of entries, each annotated with reported pIC50.

{"columns": ["compound", "pIC50"],
 "data": [
  ["COc1c(Nc2cc(C)[nH]n2)nc(Sc2ccc(S(=O)(=O)Cc3ccccc3)cc2)nc1C1CCN(CCN(C)C)CC1", "> 6.00"],
  ["CCS(=O)(=O)c1ccc(Sc2nc(Nc3cc(C)[nH]n3)c(OC)c(N3CCCCC3)n2)cc1", "> 6.00"],
  ["CCOc1c(Nc2cc(C)[nH]n2)nc(Sc2ccc(NC(=O)C3CC3)cc2)nc1N1CCN(C2CCN(C)CC2)CC1", "6.00 to 7.00"],
  ["CNCCN1CCN(c2nc(Sc3ccc(NC(C)=O)cc3)nc(Nc3cc(C)[nH]n3)c2OC)CC1", "> 6.00"]
]}
